Quick list: EC50 per entry.
Test system: IRF3 pathway in RAW-Dual cells (RAW264.7)
Test: Raw-Dual reporter gene activity assay (luciferase, QUANTI-Luc)
Type: cell-based, mouse
Settings: Mus musculus, RAW264.7, read-out: Raw, EC50
observation type: EC50 (µM)

molecule	observation type	display unit	endpoint result
BP1(=O)OC[C@H]2O[C@@H](n3cnc4c(N)ncnc43)[C@@H](F)C2OP(B)(=O)OC[C@H]2O[C@@H](n3cc(F)c4c(=O)[nH]cnc43)[C@@H](O)C2O1 (single isomer, unassigned)	EC50	µM	9.4
BP1(=O)OC[C@@]23COC([C@H](n4cnc5c(N)ncnc54)O2)[C@H]3OP(B)(=O)OC[C@H]2O[C@@H](n3cnc4c(N)ncnc43)[C@@H](F)C2O1 (single isomer, unassigned) [Compound 5B]	EC50	µM	54.8
BP1(=O)OC[C@H]2O[C@@H](n3cnc4c(N)ncnc43)C(O)[C@H]2OP(=O)(S)OC[C@H]2O[C@@H](n3cnc4c(N)ncnc43)C(F)[C@H]2O1 (stereo partly drawn) [Compound 1B]	EC50	µM	15.8
BP1(=O)OC[C@@]23COC([C@H](n4cnc5c(N)ncnc54)O2)[C@H]3OP(B)(=O)OC[C@H]2O[C@@H](n3cnc4c(N)ncnc43)[C@@H](F)C2O1 (single isomer, unassigned) [Compound 5D]	EC50	µM	31.6
BP1(=O)OC[C@H]2O[C@@H](n3cnc4c(N)ncnc43)C(O)[C@H]2OP(=O)(S)OC[C@H]2O[C@@H](n3cnc4c(N)ncnc43)C(F)[C@H]2O1 (single isomer, unassigned) [Compound 1C]	EC50	µM	41.4
BP1(=O)OC[C@H]2O[C@@H](n3cnc4c(N)ncnc43)C(F)[C@H]2OP(B)(=O)OC[C@H]2O[C@@H](n3cnc4c(N)ncnc43)[C@@H](F)C2O1 (stereo partly drawn)	EC50	µM	23.4

This collection of values is drawn from patent US11401295B2.
